- measured target: T1, extracellular domain of rhesus monkey BCMA (rhesus monkey, UniProt F7FFA0 1-53)
- T1 construct: extracellular domain; also called RhBCMA
- T1 sequence (F7FFA0 entry or part of it): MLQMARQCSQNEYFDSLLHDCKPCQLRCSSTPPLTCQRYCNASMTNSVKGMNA
- test protocol: Octet BLI; Fab 200 nM
binders and their reported Kd
All answers are understood in nM, so give the number only.

Worked examples, 2 binders total:
- binder: "AB200-R1a-Fab_Vk22 (Fab, V domains shown) VH: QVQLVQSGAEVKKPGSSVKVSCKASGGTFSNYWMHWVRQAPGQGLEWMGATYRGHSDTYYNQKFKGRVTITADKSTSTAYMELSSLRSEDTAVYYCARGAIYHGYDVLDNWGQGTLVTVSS VL: DIQMTQSPSSLSASVGDRVTITCRASQDISNYLNWYQQKPGKAPKLLIYYTSNLHSGVPSRFSGSGSGTDFTLTISSLQPEDFATYYCQQYRSIPWTFGQGTKLEIKR"
  recorded value: 9.91
- binder: "AB200-R1a-Fab_Vk24 (Fab, V domains shown) VH: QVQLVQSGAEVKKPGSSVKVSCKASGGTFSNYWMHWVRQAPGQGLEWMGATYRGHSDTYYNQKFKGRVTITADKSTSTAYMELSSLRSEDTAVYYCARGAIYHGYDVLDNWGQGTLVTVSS VL: DIQMTQSPSSLSASVGDRVTITCSASNSISNYLNWYQQKPGKAPKLLIYYASNLHSGVPSRFSGSGSGTDFTLTISSLQPEDFATYYCQQYRKLPWTFGQGTKLEIKR"
  recorded value: 14.2

Here is the next item to consider.
Q) Hello, please tell me recorded Kd for this one: AB200-R1a-Fab_Vk26 (Fab, V domains shown) VH: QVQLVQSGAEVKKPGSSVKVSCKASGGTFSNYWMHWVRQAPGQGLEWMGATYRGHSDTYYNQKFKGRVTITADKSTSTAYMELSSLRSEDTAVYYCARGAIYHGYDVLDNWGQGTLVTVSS VL: DIQMTQSPSSLSASVGDRVTITCSASQDISNYLNWYQQKPGKAPKLLIYYSSSLHIGVPSRFSGSGSGTDFTLTISSLQPEDFATYYCQQYRKLPWTFGQGTKLEIKR
A) 17.9
